# Test system: ATP;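 also: ATP exposure 15 min at 22 °C before imaging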
# assay_overview: switch fluorescence ratio, 500 uM ATP over buffer (Cy3 cluster intensity, sum of 5 cycles each) (fold (ratio)); higher = stronger signal-on switching upon ATP binding; sequences stand for … in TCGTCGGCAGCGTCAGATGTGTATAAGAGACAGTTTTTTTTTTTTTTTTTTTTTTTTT…TC
# recorded_conditions: aptamer strand: ATP DNA aptamer (quencher-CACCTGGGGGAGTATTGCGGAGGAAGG + anchor), 100 nM annealed; ATP concentration: 500 uM
quantity_kind: switch fluorescence ratio

Before answering, review these 2 worked examples.
> print(dat)
   entry.sequence              quantity.kind  endpoint.result
1      TTGATCACTT  switch fluorescence ratio                1
2      AGGAGGATCG  switch fluorescence ratio             0.97

Reading of switch fluorescence ratio for GGTGATACGA with ATP: 1.07

Kindly note: ATP, AGCGCTATTT , switch fluorescence ratio value reported: 1.04

Short answer on ATP for TCTAGTTTAT , switch fluorescence ratio: 0.987

Form field switch fluorescence ratio for item GAAGCTCCTG on ATP: 0.996

Form field switch fluorescence ratio for item TAAGAGTAAT on ATP: 0.985

The recorded switch fluorescence ratio with ATP for TGTTTGTAT was 0.985

Fill in: ATP switch fluorescence ratio for GCGAAAAAAG = 0.999

Observed switch fluorescence ratio on ATP, entry AGGAATGGTT , equals 0.992

Entry ATGGGTCTCG ; assay system ATP; switch fluorescence ratio recorded at 0.966

Entry CAGGGGCGGA : switch fluorescence ratio on ATP = 1.04

Observed switch fluorescence ratio, ATP, GGTCGAGCC : 0.983

----------
# Test system: ATP;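 also: ATP exposure 15 min at 22 °C before imaging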
# assay_overview: switch fluorescence ratio, 500 uM ATP over buffer (Cy3 cluster intensity, sum of 5 cycles each) (fold (ratio)); higher = stronger signal-on switching upon ATP binding; sequences stand for … in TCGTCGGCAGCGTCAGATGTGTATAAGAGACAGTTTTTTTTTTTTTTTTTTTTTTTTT…TC
# recorded_conditions: aptamer strand: ATP DNA aptamer (quencher-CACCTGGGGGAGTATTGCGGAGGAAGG + anchor), 100 nM annealed; ATP concentration: 500 uM
quantity_kind: switch fluorescence ratio

> print(dat)
   entry.sequence  endpoint.result
1      ACTGGCATCC             1.08
2      TAAATGTTAA            0.989
3      ATTTTCATAT             0.98

switch fluorescence ratio in this record for TTGCTGATGC : 1.02

In plain terms, AGCTTTTTGT has a documented switch fluorescence ratio of 0.947

The sequence listed as TCGGGTGTGT shows switch fluorescence ratio equal to 0.989

Form field switch fluorescence ratio, entry TAGAAGGGGA : 0.994

Entry TAGCGAAACT — recorded switch fluorescence ratio = 1.14

Notebook: AAGGTATTAA , switch fluorescence ratio read as 1

In plain terms, TGGGGCCTAA has a documented switch fluorescence ratio of 1.02

Item: AACGGTACCG | switch fluorescence ratio: 0.981

Sample GATACCTTTG ; switch fluorescence ratio observed: 1.72

# switch fluorescence ratio (sequence: AATAGTGACG ) is 1.14

----------
# Tested on: ATP;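 also: ATP exposure 15 min at 22 °C before imaging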
# assay_overview: switch fluorescence ratio, 500 uM ATP over buffer (Cy3 cluster intensity, sum of 5 cycles each) (fold (ratio)); higher = stronger signal-on switching upon ATP binding; sequences stand for … in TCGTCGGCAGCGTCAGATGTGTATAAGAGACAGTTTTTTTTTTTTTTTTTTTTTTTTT…TC
# recorded_conditions: aptamer strand: ATP DNA aptamer (quencher-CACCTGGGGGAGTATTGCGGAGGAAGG + anchor), 100 nM annealed; ATP concentration: 500 uM
Reported values of switch fluorescence ratio for individual entries
When you answer, write just the number.

For orientation, consider the following solved cases.
> print(dat)
   entry.sequence  endpoint.result
1      GGTAAGATGG            0.995
2      TAGTAGATTC                1
3      ATTAGATGAC             1.02
4      AAATCGGATA             1.03
5      AGTTGTGTCG            0.955

// switching to the query sequence
Data point: ATGGTGCGGA ; switch fluorescence ratio = 0.956

src = the supplement of paper PMC10126150
